Each entry below lists one item and its recorded pIC50 value.
# MEASUREMENT_TARGET: PI3K α (p110α/p85α) (Homo sapiens)
# Construct: purchased Upstate / Millipore Corporation
# Sequence (P42336 whole entry): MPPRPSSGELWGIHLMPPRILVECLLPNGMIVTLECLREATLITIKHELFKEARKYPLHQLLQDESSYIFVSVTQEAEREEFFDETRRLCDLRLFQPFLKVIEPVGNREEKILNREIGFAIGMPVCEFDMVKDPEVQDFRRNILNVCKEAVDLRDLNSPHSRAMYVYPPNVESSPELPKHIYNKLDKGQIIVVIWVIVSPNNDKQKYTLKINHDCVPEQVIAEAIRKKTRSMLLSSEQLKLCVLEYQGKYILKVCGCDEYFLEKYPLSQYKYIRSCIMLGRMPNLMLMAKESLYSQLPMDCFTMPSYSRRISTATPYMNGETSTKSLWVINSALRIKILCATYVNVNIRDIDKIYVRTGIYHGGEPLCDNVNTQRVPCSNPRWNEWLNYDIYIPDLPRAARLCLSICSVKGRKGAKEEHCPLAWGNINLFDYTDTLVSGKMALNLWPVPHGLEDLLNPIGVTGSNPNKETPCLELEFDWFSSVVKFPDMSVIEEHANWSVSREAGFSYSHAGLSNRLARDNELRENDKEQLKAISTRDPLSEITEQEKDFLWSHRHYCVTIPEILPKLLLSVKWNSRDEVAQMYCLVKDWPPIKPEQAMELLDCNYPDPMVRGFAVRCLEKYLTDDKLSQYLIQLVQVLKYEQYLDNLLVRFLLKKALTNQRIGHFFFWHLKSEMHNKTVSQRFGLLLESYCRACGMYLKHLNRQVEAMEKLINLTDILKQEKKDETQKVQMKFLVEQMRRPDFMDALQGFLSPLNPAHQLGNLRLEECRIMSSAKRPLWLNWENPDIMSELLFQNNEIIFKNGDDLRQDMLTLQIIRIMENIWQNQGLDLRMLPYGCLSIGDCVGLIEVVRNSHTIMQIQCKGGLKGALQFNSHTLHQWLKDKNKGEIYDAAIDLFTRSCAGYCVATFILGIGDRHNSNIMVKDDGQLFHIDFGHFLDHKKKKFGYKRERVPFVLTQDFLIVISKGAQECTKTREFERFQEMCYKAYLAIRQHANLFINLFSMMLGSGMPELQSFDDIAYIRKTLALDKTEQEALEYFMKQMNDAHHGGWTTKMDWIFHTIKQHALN
# Sequence (P27986 whole entry partner): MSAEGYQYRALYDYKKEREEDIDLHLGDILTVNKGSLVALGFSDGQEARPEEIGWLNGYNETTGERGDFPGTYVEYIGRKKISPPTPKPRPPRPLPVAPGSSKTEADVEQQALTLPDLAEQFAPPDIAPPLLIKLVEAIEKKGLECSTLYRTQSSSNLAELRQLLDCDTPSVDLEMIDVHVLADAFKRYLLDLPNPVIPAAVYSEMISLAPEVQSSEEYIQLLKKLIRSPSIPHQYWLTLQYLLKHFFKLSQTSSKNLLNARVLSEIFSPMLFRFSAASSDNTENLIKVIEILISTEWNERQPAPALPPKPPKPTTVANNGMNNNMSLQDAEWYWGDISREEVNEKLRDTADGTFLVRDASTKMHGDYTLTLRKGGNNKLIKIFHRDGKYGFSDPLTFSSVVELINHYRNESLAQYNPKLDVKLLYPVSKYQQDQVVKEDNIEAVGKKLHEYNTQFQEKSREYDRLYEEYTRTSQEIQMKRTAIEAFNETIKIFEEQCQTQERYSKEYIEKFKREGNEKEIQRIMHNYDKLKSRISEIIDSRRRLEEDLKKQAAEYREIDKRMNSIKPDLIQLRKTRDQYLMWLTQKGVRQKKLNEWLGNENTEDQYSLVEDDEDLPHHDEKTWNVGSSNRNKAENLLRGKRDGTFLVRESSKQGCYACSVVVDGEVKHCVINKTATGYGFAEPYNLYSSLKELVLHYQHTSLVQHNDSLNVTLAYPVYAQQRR
# PROTOCOL_SUMMARY: PI 3-Kinase (human) HTRF assay, PI3K α
# Type: biochemical
# CONDITIONS_USED: read-out: PI3K α IC50
pIC50: −log10 of the molar value.

[
  {
    "SMILES_STRUCTURE": "CC(C)(C)N1CCN(c2cnc3ccc(-c4ccc5oc(N)nc5c4)cc3n2)CC1",
    "READING": "> 7.00"
  },
  {
    "SMILES_STRUCTURE": "CC(C)N1CCN(C(=O)c2cnc3ccc(-c4ccc5oc(N)nc5c4)cn23)CC1",
    "READING": "> 7.00"
  },
  {
    "SMILES_STRUCTURE": "CCN(CC)CCCNC(=O)c1cnc2ccc(-c3ccc4oc(N)nc4c3)cn12",
    "READING": "> 6.00"
  },
  {
    "SMILES_STRUCTURE": "O=C(c1cnc2ccc(-c3cccc(NS(=O)(=O)c4ccccc4)c3)cn12)N1CCOCC1",
    "READING": "> 5.00"
  },
  {
    "SMILES_STRUCTURE": "CC1(C)CN(C(=O)c2cnc3ccc(-c4ccc5oc(N)nc5c4)cn23)CCO1",
    "READING": "> 6.00"
  },
  {
    "SMILES_STRUCTURE": "CC(=O)N1CCN(C(=O)c2cnc3ccc(-c4ccc5oc(N)nc5c4)cn23)CC1",
    "READING": "> 7.00"
  }
]

The reported pIC50 of the compound Nc1n[nH]c2cc(-c3ccc4ncc(C(=O)N5CCOCC5)n4c3)ccc12 was < 5.00

So for CN1CCN(c2cc(-c3cnc4ccc(-c5ccc6oc(N)nc6c5)cn34)ccn2)CC1 , the logged pIC50 turned out to be > 7.00

Origin of measurements: patent US20150087627A1
